Tested on: EKVX NSCLC
Assay: NCI tumour cell line growth inhibition, 48 h
As shown below, each of these compounds has a reported TGI value.
readout type: TGI

{"columns": ["compound", "subject of test", "readout type", "measurement"],
 "data": [
  ["CCNC(=O)O/N=C1/C=C2CC[C@@H]3C(CC[C@@]4(C)C3CC[C@@H]4OC(=O)NCC)[C@@]2(C)CC1 (stereo partly specified)", "EKVX NSCLC", "TGI", "16.2 µM"],
  ["CCCSC1=N/C(=C\\c2ccco2)C(=O)N1", "EKVX NSCLC", "TGI", "> 100 µM"],
  ["Cc1nnc(N)s/c1=N/O", "EKVX NSCLC", "TGI", "> 100 µM"],
  ["CC(C)(CCc1nc2ccccc2[nH]1)C(=O)O", "EKVX NSCLC", "TGI", "> 100 µM"],
  ["CN(C)c1ccc(/C=C2\\Cc3ccccc3C2=O)cc1Br", "EKVX NSCLC", "TGI", "> 100 µM"],
  ["CCOC(=O)c1c(SCCN(CC)CC)n(-c2ccccc2)c(=S)n(-c2ccccc2)c1=O", "EKVX NSCLC", "TGI", "24.8 µM"],
  ["CCOC(=O)/C(=C/c1ccc[nH]1)P(=O)(OCC)OCC", "EKVX NSCLC", "TGI", "> 100 µM"],
  ["O=NNc1nc(-c2ccccn2)nc2ccccc12", "EKVX NSCLC", "TGI", "> 100 µM"],
  ["CC(=O)OC1C(C)OC(OC2C[C@](O)(C(C)=O)Cc3c(O)c4c(c(O)c32)C(=O)c2ccccc2C4=O)C(F)C1OC(C)=O (stereo partly specified)", "EKVX NSCLC", "TGI", "99.2 µM"],
  ["CC1SCCc2nc3ccccc3n21 (stereo unspecified)", "EKVX NSCLC", "TGI", "> 100 µM"],
  ["COc1cccc(OC)c1/C=N\\N1C(=O)c2ccccc2C1=O", "EKVX NSCLC", "TGI", "> 100 µM"]
]}

====

Tested on: MALME-3M melanoma
Assay: NCI tumour cell line growth inhibition, 48 h
As shown below, each of these molecules has a reported GI50 value.

{"columns": ["molecule", "GI50"],
 "data": [
  ["O=C(COC(=O)[C@H](C[Se][Se]C[C@H](NC(=O)c1ccc(Br)cc1F)C(=O)OCC(=O)c1ccc(F)cc1)NC(=O)c1ccc(Br)cc1F)c1ccc(F)cc1", "0.639 µM"],
  ["CN(C)C(=O)c1cc2cnc(Nc3ccc(N4CCNCC4)cn3)nc2n1C1CCCC1", "5.4 µM"],
  ["Cc1cccc(Cc2cnc(NC(=O)CCCOc3ccc(Cl)cc3)s2)c1", "5.38 µM"],
  ["Cn1c(=O)c(Oc2ccc(F)cc2F)cc2cnc(NC3CCC(O)CC3)nc21 (stereo not drawn)", "> 25 µM"],
  ["Cc1cc(N(CCCl)CCCl)ccc1/C=N\\NC(=O)c1cccnc1", "26.2 µM"],
  ["O=C(Nc1cccc(C(F)(F)F)c1)Nc1cc(S(=O)(=O)NC2CC2)ccc1-c1ccsc1", "3.39 µM"],
  ["Cc1c(-c2ccc(N3CCc4cccc(C(=O)Nc5nc6ccccc6s5)c4C3)nc2C(=O)O)cnn1CC12CC3CC(CC(C3)C1)C2", "14.3 µM"],
  ["Cc1c(N)nc(C2CC(=O)N2CC(N)C(N)=O)nc1C(=O)NC(C(=O)NC(C)C(O)C(C)C(=O)NC(C(=O)NCCc1nc(-c2nc(C(=O)NCCNCC(C)O)cs2)cs1)C(C)O)C(OC1OC(CO)C(O)C(O)C1OC1OC(CO)C(O)C(OC(N)=O)C1O)c1cnc[nH]1 (stereo not drawn)", "1.16 µM"]
]}
